These measurements were taken from the supplement of paper PMC9112550.

- Tested on: Escherichia coli TOP10;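 further: peptides expressed intracellularly from a pBAD plasmid library in pooled LB shake-flask culture, induced with 0.3% L-arabinose, DNA abundance read by NGS, three biological replicates, DESeq2 with apeglm shrinkage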
- Method: shrunken log2 fold change of peptide-encoding DNA abundance (4.5 h post-induction vs induction); higher = less antimicrobial activity (less host growth inhibition)
- Test Settings: time post-induction: 4.5 h; library: site-saturation at positions 5, 18, 19, 20
Readout Type: shrunken log2 fold change
# respond with the number and nothing more

Sample RRIRGRPPRLPRPRPRPSAQPRP — what was its shrunken log2 fold change?
1.26

Try this sequence next: RRIRGRPPRLPRPRPRPAWCPRP
0.822

Same lookup for RRIRDRPPRLPRPRPRPTSSPRP , please.
0.058

Next entry: RRIRWRPPRLPRPRPRPYVCPRP
-0.00902
